Just for reference, ChEMBL document CHEMBL1909046 is where these values come from.

assay: DRUGMATRIX: beta-Lactamase enzyme inhibition (substrate: Nitrocefin); parameters: species or system Bacillus cereus; conditions: Not Active = under 50% inhibition at 10 µM
measure: Ki

CC(=O)OC[C@H]1O[C@@H](n2ncc(=O)[nH]c2=O)[C@H](OC(C)=O)[C@@H]1OC(C)=O [AZARIBINE] = Not Active
CCN(CC)CCNC(=O)c1ccc(N)cc1 [PROCAINAMIDE] = Not Active
Cc1c(O)cccc1C(=O)N[C@@H](CSc1ccccc1)[C@H](O)CN1C[C@H]2CCCC[C@H]2C[C@H]1C(=O)NC(C)(C)C = Not Active
CC1CCC(NC(=O)N(CCCl)N=O)CC1 (centres undefined) [SEMUSTINE] = Not Active

---

target: Thromboxane-A synthase (Homo sapiens); assay: biochemical; type: tissue-based, Platelet; details: platelet;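 also: enzyme inhibition assay with PGH2 supplied as substrate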; also: in other assays of this panel Not Active means under 50% inhibition at 10 µM
Sequence (P24557 whole entry): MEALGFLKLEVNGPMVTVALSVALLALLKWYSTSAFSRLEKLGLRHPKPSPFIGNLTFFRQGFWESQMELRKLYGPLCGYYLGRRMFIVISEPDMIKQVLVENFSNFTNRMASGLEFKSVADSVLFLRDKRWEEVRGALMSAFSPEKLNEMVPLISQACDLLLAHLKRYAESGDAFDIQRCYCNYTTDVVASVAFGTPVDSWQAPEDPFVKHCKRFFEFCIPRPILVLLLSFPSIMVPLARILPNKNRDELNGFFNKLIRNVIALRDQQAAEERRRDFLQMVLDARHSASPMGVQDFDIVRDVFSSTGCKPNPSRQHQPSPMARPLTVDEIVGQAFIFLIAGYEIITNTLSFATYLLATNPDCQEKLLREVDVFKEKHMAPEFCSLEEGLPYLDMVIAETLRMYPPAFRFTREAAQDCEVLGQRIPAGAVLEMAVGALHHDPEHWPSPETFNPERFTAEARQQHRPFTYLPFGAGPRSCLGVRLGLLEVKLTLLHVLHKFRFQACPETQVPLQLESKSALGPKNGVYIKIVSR
measure: IC50

Use these answered entries as a reference point.
OCCOCCN1CCN(C2=Nc3ccccc3Sc3ccccc32)CC1 = Not Active
CC(C)NCC(O)c1ccccc1Cl (stereo not given) = Not Active
Nc1ccc(S(=O)(=O)NC(=O)c2ccccc2)cc1 [SULFABENZAMIDE] = Not Active
NC(=O)c1cccnc1 [NIACINAMIDE] = Not Active
CN1CCN(c2c(F)cc3c(=O)c(C(=O)O)cn(CCF)c3c2F)CC1 = Not Active
COc1ccccc1N = Not Active

In the following, a different compound is considered.
Qu. Which IC50 is reported with Thromboxane-A synthase (Homo sapiens) for this entry: COc1ccnc(C[S+]([O-])c2nc3ccc(OC(F)F)cc3[nH]2)c1OC (stereo not given) ?
Ans. Not Active

---

target: Carbonic anhydrase 2 (Homo sapiens, UniProt P00918); experiment: DRUGMATRIX: Carbonic Anhydrase II enzyme inhibition (substrate: 4-Nitrophenyl acetate (4-NPA)); format: tissue-based, Erythrocyte; conditions: erythrocyte; Not Active = under 50% inhibition at 10 µM
measure: IC50

C[C@]12CC[C@H]3[C@@H](CCC4=CC(=O)CC[C@@H]43)[C@@H]1CC[C@@H]2O = Not Active
CCC1=C(C)CN(C(=O)NCCc2ccc(S(=O)(=O)NC(=O)N[C@H]3CC[C@H](C)CC3)cc2)C1=O [GLIMEPIRIDE] = Not Active
C[C@H]1COc2c(N3CCN(C)CC3)c(F)cc3c(=O)c(C(=O)O)cn1c23.C[C@H]1COc2c(N3CCN(C)CC3)c(F)cc3c(=O)c(C(=O)O)cn1c23.O = Not Active

---

Biological target: Progesterone receptor (Bos taurus, UniProt Q690N0)
Sequence (Q690N0 whole entry): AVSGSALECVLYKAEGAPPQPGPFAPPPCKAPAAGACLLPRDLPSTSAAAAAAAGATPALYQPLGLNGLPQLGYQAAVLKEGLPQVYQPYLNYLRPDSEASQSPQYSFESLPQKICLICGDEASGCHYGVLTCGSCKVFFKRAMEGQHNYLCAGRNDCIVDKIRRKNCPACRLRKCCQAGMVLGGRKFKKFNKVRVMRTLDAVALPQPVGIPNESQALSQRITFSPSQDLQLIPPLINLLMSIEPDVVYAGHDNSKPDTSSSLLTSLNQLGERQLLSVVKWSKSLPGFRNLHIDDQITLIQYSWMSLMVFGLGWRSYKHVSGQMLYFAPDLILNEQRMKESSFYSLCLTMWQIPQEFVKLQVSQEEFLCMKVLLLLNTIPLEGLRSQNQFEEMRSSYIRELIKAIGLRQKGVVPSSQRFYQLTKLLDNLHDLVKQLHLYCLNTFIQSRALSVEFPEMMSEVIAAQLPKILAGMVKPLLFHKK
Assay: DRUGMATRIX: Progesterone radioligand binding (ligand: [3H] R-5020)
Type: tissue-based, Uterus
Settings: Not Active = under 50% inhibition at 10 µM; read-out: Ki
measure: pKi
Worth noting: pKi values are minus log10 of concentrations stated in mol/L.

Please review the entries below; each comes with its answer.
Clc1ccc(COC(Cn2ccnc2)c2ccc(Cl)cc2Cl)c(Cl)c1 (stereo not given) [MICONAZOLE] = 5.71
Cc1c(O)cccc1C(=O)N[C@@H](CSc1ccccc1)[C@H](O)CN1C[C@H]2CCCC[C@H]2C[C@H]1C(=O)NC(C)(C)C = 5.24
C[C@]12CC[C@H]3[C@@H](CCC4=CC(=O)CC[C@@H]43)[C@@H]1CC[C@@H]2O [NANDROLONE] = 7.65

Qu. Name the recorded pKi for CC(=O)OCC(=O)[C@@]12OC(C)(C)O[C@@H]1C[C@H]1[C@@H]3C[C@H](F)C4=CC(=O)C=C[C@]4(C)[C@@]3(F)[C@@H](O)C[C@@]12C [FLUOCINONIDE] .
Ans. 8.54

Qu. Requested field: pKi. Item: C#C[C@]1(O)CC[C@H]2[C@@H]3CCC4=CC(=O)CC[C@]4(C)[C@H]3CC[C@@]21C [ETHISTERONE]
Ans. 8.11
